TARGET OF ASSAY: Patatin-like phospholipase domain-containing protein 2 (Mus musculus)
Sequence (Q8BJ56 whole entry, the tested form may be a part): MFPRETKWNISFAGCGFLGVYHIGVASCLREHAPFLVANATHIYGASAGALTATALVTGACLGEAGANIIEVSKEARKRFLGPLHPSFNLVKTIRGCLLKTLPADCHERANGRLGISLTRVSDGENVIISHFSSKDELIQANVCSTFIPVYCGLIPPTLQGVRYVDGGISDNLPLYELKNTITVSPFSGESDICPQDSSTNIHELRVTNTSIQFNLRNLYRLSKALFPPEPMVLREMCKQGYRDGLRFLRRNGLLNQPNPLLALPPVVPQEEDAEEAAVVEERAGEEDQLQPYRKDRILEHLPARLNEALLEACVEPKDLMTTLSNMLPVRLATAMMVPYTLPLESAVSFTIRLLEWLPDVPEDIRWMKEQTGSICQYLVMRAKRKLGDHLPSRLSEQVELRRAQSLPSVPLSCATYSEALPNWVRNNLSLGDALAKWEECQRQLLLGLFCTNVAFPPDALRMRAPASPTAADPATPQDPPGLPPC
ASSAY REMARKS: Inhibition of murine ATGL expressed in COS-7 cells
Type: cell-based
Catalogue of IC50 readings, one per entry.
EXPERIMENTAL READOUT: IC50

In [3]: df
Out[3]:
                                    compound                           target_of_assay  experimental_readout  experimental_value
 0    CCOC(=O)N(C)c1cccc(-c2ccc(N(C)C)cc2)c1  Patatin-like phospholipase domain-containing protein 2 (Mus musculus)                  IC50            > 200 µM
 1           CCOc1ccc(-c2cccc(C(=O)NC)c2)cc1  Patatin-like phospholipase domain-containing protein 2 (Mus musculus)                  IC50            > 200 µM
 2  CN(C)c1ccc(-c2cccc(NC(=O)N3CCOCC3)c2)cc1  Patatin-like phospholipase domain-containing protein 2 (Mus musculus)                  IC50            > 200 µM
 3    CN(C)c1ccc(-c2cccc([N+](=O)[O-])c2)cc1  Patatin-like phospholipase domain-containing protein 2 (Mus musculus)                  IC50            > 200 µM
 4     CCOc1ccc(-c2cccc(C(=O)OCCOCCOC)c2)cc1  Patatin-like phospholipase domain-containing protein 2 (Mus musculus)                  IC50            > 200 µM
 5     CN(C)C(=O)Nc1cccc(-c2ccc(N(C)C)cc2)c1  Patatin-like phospholipase domain-containing protein 2 (Mus musculus)                  IC50              < 5 µM
 6        CCOC(=O)c1ccc(-c2ccc(OCC)cc2)[nH]1  Patatin-like phospholipase domain-containing protein 2 (Mus musculus)                  IC50            > 200 µM
 7            CCOc1ccc(-c2cccc(C(=O)O)c2)cc1  Patatin-like phospholipase domain-containing protein 2 (Mus musculus)                  IC50            > 200 µM
 8     CCOC(=O)c1cccc(-c2ccc(CN3CCCC3)cc2)c1  Patatin-like phospholipase domain-containing protein 2 (Mus musculus)                  IC50            > 200 µM
 9      CCOc1ccc(-c2cccc([N+](=O)[O-])c2)cc1  Patatin-like phospholipase domain-containing protein 2 (Mus musculus)                  IC50            > 200 µM
10  CCOC(=O)C1CCCC(c2ccc(OCC)cc2)N1 (stereo not given)  Patatin-like phospholipase domain-containing protein 2 (Mus musculus)                  IC50            > 200 µM
11  CN(C)c1ccc(-c2cccc(NC(=O)C(C)(C)C)c2)cc1  Patatin-like phospholipase domain-containing protein 2 (Mus musculus)                  IC50            > 200 µM
12               CCOC(=O)c1cccc(-c2ccccc2)c1  Patatin-like phospholipase domain-containing protein 2 (Mus musculus)                  IC50              200 µM
13        CCOC(=O)c1cccc(-c2ccc3c(c2)CCN3)c1  Patatin-like phospholipase domain-containing protein 2 (Mus musculus)                  IC50              120 µM
14        CCCCOC(=O)c1cccc(-c2ccc(OCC)cc2)c1  Patatin-like phospholipase domain-containing protein 2 (Mus musculus)                  IC50              100 µM
